# Experimental target: T1, human HER3/ErbB3 extracellular domain (human, UniProt P21860 20-643)
# T1 construct: extracellular domain; the range 1-643 of M34309 is printed only for the immunogen; also called Human HER3 ECD; recombinant human HER3
# T1 sequence (P21860 20-643): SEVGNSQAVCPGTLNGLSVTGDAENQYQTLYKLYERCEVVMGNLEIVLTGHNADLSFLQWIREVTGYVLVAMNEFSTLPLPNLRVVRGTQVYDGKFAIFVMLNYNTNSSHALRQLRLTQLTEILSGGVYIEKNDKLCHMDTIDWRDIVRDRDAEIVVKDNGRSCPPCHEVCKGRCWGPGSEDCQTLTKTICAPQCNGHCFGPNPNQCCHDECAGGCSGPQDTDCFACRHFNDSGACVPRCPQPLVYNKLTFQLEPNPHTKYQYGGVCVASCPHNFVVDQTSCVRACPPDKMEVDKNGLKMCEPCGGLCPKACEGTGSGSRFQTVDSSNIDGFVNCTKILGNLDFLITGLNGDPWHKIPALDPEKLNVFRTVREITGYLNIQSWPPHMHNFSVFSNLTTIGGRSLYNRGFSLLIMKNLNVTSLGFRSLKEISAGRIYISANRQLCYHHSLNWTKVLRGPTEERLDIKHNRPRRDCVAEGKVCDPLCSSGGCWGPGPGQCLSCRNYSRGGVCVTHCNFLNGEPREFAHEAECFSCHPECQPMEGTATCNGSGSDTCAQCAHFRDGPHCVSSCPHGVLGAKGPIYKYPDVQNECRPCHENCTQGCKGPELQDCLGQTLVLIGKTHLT
# Test method notes: ELISA on human HER3 ECD
Recorded EC50 by entry
A number alone suffices; assume ng/mL.

Would you please look over these solved cases?
Binder | Recorded number
Chi1210 (antibody, V domains shown, also called parental rabbit/human Fc chimera of Rab1210) VH: QEQLEESGGGLVQPEGSLTLTCTASGFSFSSSYWICWVRQAPGKGLELIGYIWSGNGATYYASWAKGRFTISKTSSTTVTLQMTSVTATDTATYFCARNYDASGYGIFHLWGPGTLVTVSS VL: AVVMTQTPASVSAAVGGTVTINCQASQSIVSSYLSWYQQKTGQPPKLLIYSASKLASGVPPRFSGSGSGTQFTLTISGVQCDDAATYYCLYGVDSSNIDNAFGGGTEVVVK | 2.6
HER3-hMab-A15 (antibody, V domains shown) VH: QVQLVESGGGLVQPGGSLRLSCSASGFSFSSSYWICWVRQAPGKGLEYIGYIWSGNGATYYASWAKGRFTISRDNSKNTVYLQMNSLRAEDTAVYFCARNYDASGYGIFHLWGPGTLVTVSS VL: AVQMTQTPSSLSASVGDRVTINCQASQSIVSSYLSWYQQKPGKPPKLLIYSASKLASGVPSRFSGSGSGTDFTLTISSLQPEDFATYYCLYGVDSSNIDNAFGGGTKVEIK | 2.4

Recorded result, HER3-hMab-A13 (antibody, V domains shown) VH: QVQLVESGGGLVQPGGSLRLSCSASGFSFSSSYWICWVRQAPGKGLEYIGYIWSGNGATYYASWAKGRFTISRDNSKNTVYLQMNSLRAEDTAVYFCARNYDASGYGIFHLWGPGTLVTVSS VL: DIQMTQTPSSLSASVGDRVTINCQASQSIVSSYLSWYQQKPGKPPKLLIYSASKLASGVPSRFSGSGSGTDFTLTISSLQPEDFATYYCLYGVDSSNIDNAFGGGTKVEIK , EC50: 2.5
